Listed here are compounds together with their documented Kd.
Study system: human integrin αvβ5 (Homo sapiens, UniProt P06756+P18084)
Sequence (P06756 31-1048): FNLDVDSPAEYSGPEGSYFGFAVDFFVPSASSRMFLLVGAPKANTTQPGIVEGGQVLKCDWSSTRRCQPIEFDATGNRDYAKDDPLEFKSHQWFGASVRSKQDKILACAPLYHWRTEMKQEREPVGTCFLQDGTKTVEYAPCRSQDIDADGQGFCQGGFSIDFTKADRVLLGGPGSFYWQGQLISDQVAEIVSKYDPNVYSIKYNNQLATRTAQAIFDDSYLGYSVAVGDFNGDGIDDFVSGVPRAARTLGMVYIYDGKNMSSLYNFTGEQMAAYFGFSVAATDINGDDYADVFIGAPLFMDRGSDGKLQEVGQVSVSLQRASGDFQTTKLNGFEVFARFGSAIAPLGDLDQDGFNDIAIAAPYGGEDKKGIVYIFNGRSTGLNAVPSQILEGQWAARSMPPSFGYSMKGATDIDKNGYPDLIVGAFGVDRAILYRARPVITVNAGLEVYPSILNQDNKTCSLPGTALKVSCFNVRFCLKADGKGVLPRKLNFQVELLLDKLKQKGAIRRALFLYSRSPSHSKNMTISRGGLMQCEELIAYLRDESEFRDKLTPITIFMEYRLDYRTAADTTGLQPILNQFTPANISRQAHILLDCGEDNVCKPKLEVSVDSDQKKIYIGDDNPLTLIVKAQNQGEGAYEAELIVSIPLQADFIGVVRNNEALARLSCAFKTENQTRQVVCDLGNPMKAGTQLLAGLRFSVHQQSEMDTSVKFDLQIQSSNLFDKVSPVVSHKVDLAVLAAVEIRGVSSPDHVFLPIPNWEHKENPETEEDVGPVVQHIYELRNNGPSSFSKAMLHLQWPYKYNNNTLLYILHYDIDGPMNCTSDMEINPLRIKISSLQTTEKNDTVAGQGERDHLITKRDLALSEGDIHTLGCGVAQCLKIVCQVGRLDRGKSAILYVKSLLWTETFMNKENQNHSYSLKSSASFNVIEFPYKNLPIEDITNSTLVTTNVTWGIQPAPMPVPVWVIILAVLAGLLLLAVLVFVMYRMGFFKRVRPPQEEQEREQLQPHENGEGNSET
Sequence (P18084 24-799): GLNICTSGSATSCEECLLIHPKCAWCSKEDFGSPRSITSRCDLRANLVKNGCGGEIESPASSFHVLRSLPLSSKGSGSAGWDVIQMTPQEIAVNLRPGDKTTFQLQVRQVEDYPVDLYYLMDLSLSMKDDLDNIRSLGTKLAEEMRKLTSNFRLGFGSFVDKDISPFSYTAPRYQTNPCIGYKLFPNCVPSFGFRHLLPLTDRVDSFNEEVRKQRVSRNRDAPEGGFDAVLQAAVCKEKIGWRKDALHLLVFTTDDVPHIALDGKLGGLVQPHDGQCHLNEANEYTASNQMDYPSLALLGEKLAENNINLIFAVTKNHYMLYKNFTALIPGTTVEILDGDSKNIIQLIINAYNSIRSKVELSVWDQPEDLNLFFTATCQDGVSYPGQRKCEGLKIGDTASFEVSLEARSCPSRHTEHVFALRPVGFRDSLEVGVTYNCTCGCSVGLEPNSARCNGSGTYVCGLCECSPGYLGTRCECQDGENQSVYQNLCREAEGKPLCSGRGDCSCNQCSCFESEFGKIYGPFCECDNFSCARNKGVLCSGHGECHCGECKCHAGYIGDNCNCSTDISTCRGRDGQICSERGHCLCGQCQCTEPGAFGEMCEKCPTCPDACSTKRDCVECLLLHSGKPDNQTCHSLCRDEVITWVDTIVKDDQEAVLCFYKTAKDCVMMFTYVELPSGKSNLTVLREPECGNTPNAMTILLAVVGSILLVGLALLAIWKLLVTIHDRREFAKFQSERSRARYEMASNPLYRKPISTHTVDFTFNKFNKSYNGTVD
Measurement notes: Evaluation of integrin binding property (surface plasmon resonance, Biacore 3000, immobilized cyclic peptide)
Test settings: surface plasmon resonance, immobilized cyclic peptide, human integrin αvβ5; read-out: Binding activity (integrin binding property, dissociation constant rank)
Starred links: 1 amine or outer side, 2 acyl side, 3 side chain; linkers in the order of their positions; H or OH if unused. Positions of bridges follow the written chain, without caps; N, C: chain ends. Non-standard residues stand in square brackets, D forms with d. Residues, ends and D or L forms follow the SMILES beside them. Pen = CC(C)(S)[C@H](N)C(=O)O; hCys = N[C@@H](CCS)C(=O)O; Dab = NCC[C@H](N)C(=O)O; X1 = O=C(C[*:2])[*:1]; X2 = O=C(C[*:1])[*:2]

Compound: CC[C@H](C)[C@@H]1NC(=O)[C@@H](NC(=O)CNC(=O)[C@H](CCCCN)NC(=O)[C@H](CCCCN)NC(=O)[C@@H](N)CCCCN)CCNC(=O)CSC(C)(C)[C@@H](C(=O)N[C@@H](C)C(=O)O)NC(=O)[C@H](CCCNC(=N)N)NC(=O)[C@H](Cc2ccccc2)NC(=O)[C@H]([C@@H](C)O)NC(=O)[C@H](CC(=O)O)NC(=O)CNC(=O)[C@H](CCCNC(=N)N)NC(=O)[C@@H]2CCCN2C1=O [Cyclic peptide 133, KKKG(Dab(acetyl))IPRGDTFR-(Pen)-A] (H-KKKG[Dab]IPRGDTFR[Pen]A-OH; linker 5-14 via X1)
Kd: 50 to 100 nM
--
Compound: C[C@@H]1NC(=O)[C@H](Cc2ccccc2)NC(=O)[C@H]([C@@H](C)O)NC(=O)[C@H](CC(=O)O)NC(=O)CNC(=O)[C@H](CCCNC(=N)N)NC(=O)[C@@H]2CCCN2C(=O)[C@H]([C@@H](C)O)NC(=O)[C@@H](NC(=O)[C@H](CCCCN)NC(=O)[C@H](CCCCN)NC(=O)[C@@H](N)CCCCN)CCSCC(=O)NCC[C@@H](C(=O)O)NC1=O [Cyclic peptide 147, KKK-(Hcy)-TPRGDTFA(Dab(acetyl))] (H-KKK[hCys]TPRGDTFA[Dab]-OH; linker 4-13 via X2)
Kd: < 50 nM

###

Study system: human integrin αvβ5 (Homo sapiens, UniProt P06756+P18084)
Measurement notes: Evaluation of integrin binding property (surface plasmon resonance, Biacore 3000, immobilized cyclic peptide)
Test settings: SPR, 25° C., HEPES buffer with 5 mM magnesium chloride, integrin 30-1,000 nM; read-out: Performance evaluation: Binding activity (dissociation constant between the cyclic peptide and human integrin αvβ5)
Starred links: 1 amine or outer side, 2 acyl side, 3 side chain; linkers in the order of their positions; H or OH if unused. Positions of bridges follow the written chain, without caps; N, C: chain ends. Non-standard residues stand in square brackets, D forms with d. Residues, ends and D or L forms follow the SMILES beside them. hCys = N[C@@H](CCS)C(=O)O; Dab = NCC[C@H](N)C(=O)O; X2 = O=C(C[*:1])[*:2]

Compound: C[C@H](NC(=O)[C@H](CCCCN)NC(=O)[C@H](CCCCN)NC(=O)[C@@H](N)CCCCN)C(=O)N[C@H]1CCSCC(=O)NCC[C@@H](C(=O)NCC(=O)O)NC(=O)[C@H](CCCNC(=N)N)NC(=O)[C@H](Cc2ccc(O)cc2)NC(=O)[C@H](CC(N)=O)NC(=O)[C@H](CC(=O)O)NC(=O)CNC(=O)[C@H](CCCNC(=N)N)NC(=O)[C@@H]2CCCN2C(=O)[C@H](CCC(=O)O)NC1=O [Cyclic peptide 40, KKKA-(Hcy)-EPRGDNYR(Dab(acetyl))G] (H-KKKA[hCys]EPRGDNYR[Dab]G-OH; linker 5-14 via X2)
Kd: 0.05 to 0.1 µM

###

Study system: human integrin αvβ5 (Homo sapiens, UniProt P06756+P18084)
Measurement notes: Evaluation of integrin binding property (surface plasmon resonance, Biacore 3000, immobilized cyclic peptide)
Test settings: surface plasmon resonance, immobilized cyclic peptide, human integrin αvβ5; read-out: Binding activity (integrin binding property, dissociation constant rank)
pKd: −log10 of the molar value. Starred links: 1 amine or outer side, 2 acyl side, 3 side chain; linkers in the order of their positions; H or OH if unused. Positions of bridges follow the written chain, without caps; N, C: chain ends. Non-standard residues stand in square brackets, D forms with d. Residues, ends and D or L forms follow the SMILES beside them. Pen = CC(C)(S)[C@H](N)C(=O)O; hCys = N[C@@H](CCS)C(=O)O; Dab = NCC[C@H](N)C(=O)O; Dap = NC[C@H](N)C(=O)O; X1 = O=C(C[*:2])[*:1]; X2 = O=C(C[*:1])[*:2]
Quantity: pKd

Molecule: CC(C)[C@@H]1NC(=O)[C@@H](NC(=O)[C@H](CCCCN)NC(=O)[C@H](CCCCN)NC(=O)[C@@H](N)CCCCN)CCSCC(=O)NCC[C@@H](C(=O)N[C@@H](C)C(=O)O)NC(=O)[C@H](C)NC(=O)[C@H](Cc2ccccc2)NC(=O)[C@H]([C@@H](C)O)NC(=O)[C@H](CC(=O)O)NC(=O)CNC(=O)[C@H](CCCNC(=N)N)NC(=O)[C@@H]2CCCN2C1=O [Cyclic peptide 165, KKK-(Hcy)-VPRGDTFA(Dab(acetyl))A] (H-KKK[hCys]VPRGDTFA[Dab]A-OH; linker 4-13 via X2)
Study system: human integrin αvβ5 (Homo sapiens, UniProt P06756+P18084)
Quantity: pKd
Test result: > 7.30
--
Molecule: CC(C)[C@@H]1NC(=O)[C@@H](NC(=O)[C@H](C)NC(=O)[C@H](CCCCN)NC(=O)[C@H](CCCCN)NC(=O)[C@H](CCCCN)NC(=O)[C@@H](N)CCCCN)CCSCC(=O)NCC[C@@H](C(=O)N[C@@H](C)C(=O)O)NC(=O)[C@H](C)NC(=O)[C@H](Cc2ccccc2)NC(=O)[C@H]([C@@H](C)O)NC(=O)[C@H](CC(=O)O)NC(=O)CNC(=O)[C@H](CCCNC(=N)N)NC(=O)[C@@H]2CCCN2C1=O [Cyclic peptide 110, KKKKA-(Hcy)-VPRGDTFA(Dab(acetyl))A] (H-KKKKA[hCys]VPRGDTFA[Dab]A-OH; linker 6-15 via X2)
Study system: human integrin αvβ5 (Homo sapiens, UniProt P06756+P18084)
Quantity: pKd
Test result: > 7.30
--
Molecule: CC[C@H](C)[C@@H]1NC(=O)[C@@H](NC(=O)CNC(=O)[C@H](CCCCN)NC(=O)[C@H](CCCCN)NC(=O)[C@@H](N)CCCCN)C(C)(C)SCC(=O)NCCCC[C@@H](C(=O)N[C@@H](C)C(=O)O)NC(=O)[C@H](CCCNC(=N)N)NC(=O)[C@H](Cc2ccccc2)NC(=O)[C@H]([C@@H](C)O)NC(=O)[C@H](CC(=O)O)NC(=O)CNC(=O)[C@H](CCCNC(=N)N)NC(=O)[C@@H]2CCCN2C1=O [Cyclic peptide 131, KKKG-(Pen)-IPRGDTFR(Lys(acetyl))A] (H-KKKG[Pen]IPRGDTFRKA-OH; linker 5-14 via X2)
Study system: human integrin αvβ5 (Homo sapiens, UniProt P06756+P18084)
Quantity: pKd
Test result: 7.00 to 7.30
--
Molecule: CC[C@H](C)[C@@H]1NC(=O)[C@@H](NC(=O)[C@H](C)NC(=O)[C@H](CCCCN)NC(=O)[C@H](CCCCN)NC(=O)[C@@H](N)CCCCN)CCNC(=O)CSCC[C@@H](C(=O)N[C@@H](C)C(=O)O)NC(=O)[C@H](C)NC(=O)[C@H](Cc2ccccc2)NC(=O)[C@H](CO)NC(=O)[C@H](CC(=O)O)NC(=O)CNC(=O)[C@H](CCCNC(=N)N)NC(=O)[C@@H]2CCCN2C1=O [Cyclic peptide 124, KKKA(Dab(acetyl))IPRGDSFA-(Hcy)-A] (H-KKKA[Dab]IPRGDSFA[hCys]A-OH; linker 5-14 via X1)
Study system: human integrin αvβ5 (Homo sapiens, UniProt P06756+P18084)
Quantity: pKd
Test result: 7.00 to 7.30
--
Molecule: CC(C)[C@@H]1NC(=O)[C@@H](NC(=O)CNC(=O)[C@H](CCCCN)NC(=O)[C@H](CCCCN)NC(=O)[C@@H](N)CCCCN)CCSCC(=O)NCC[C@@H](C(=O)N[C@@H](C)C(=O)O)NC(=O)[C@H](C)NC(=O)[C@H](Cc2ccccc2)NC(=O)[C@H]([C@@H](C)O)NC(=O)[C@H](CC(=O)O)NC(=O)CNC(=O)[C@H](CCCNC(=N)N)NC(=O)[C@@H]2CCCN2C1=O [Cyclic peptide 106, KKKG-(Hcy)-VPRGDTFA(Dab(acetyl))A] (H-KKKG[hCys]VPRGDTFA[Dab]A-OH; linker 5-14 via X2)
Study system: human integrin αvβ5 (Homo sapiens, UniProt P06756+P18084)
Quantity: pKd
Test result: > 7.30
--
Molecule: CC(C)[C@@H]1NC(=O)[C@@H](NC(=O)[C@H](CCCCN)NC(=O)[C@H](CCCCN)NC(=O)[C@@H](N)CCCCN)CCSCC(=O)NCC[C@@H](C(=O)O)NC(=O)[C@H]([C@@H](C)O)NC(=O)[C@H](Cc2ccccc2)NC(=O)[C@H]([C@@H](C)O)NC(=O)[C@H](CC(=O)O)NC(=O)CNC(=O)[C@H](CCCNC(=N)N)NC(=O)[C@@H]2CCCN2C1=O [Cyclic peptide 154, KKK-(Hcy)-VPRGDTFT(Dab(acetyl))] (H-KKK[hCys]VPRGDTFT[Dab]-OH; linker 4-13 via X2)
Study system: human integrin αvβ5 (Homo sapiens, UniProt P06756+P18084)
Quantity: pKd
Test result: 7.00 to 7.30
--
Molecule: C[C@H](NC(=O)[C@H](CCCCN)NC(=O)[C@H](CCCCN)NC(=O)[C@@H](N)CCCCN)C(=O)N[C@H]1CNC(=O)CSC[C@@H](C(=O)O)NC(=O)[C@H](CCCNC(=N)N)NC(=O)[C@H](Cc2ccc(O)cc2)NC(=O)[C@H](CC(N)=O)NC(=O)[C@H](CC(=O)O)NC(=O)CNC(=O)[C@H](CCCNC(=N)N)NC(=O)[C@@H]2CCCN2C(=O)[C@H](CCC(=O)O)NC1=O [Cyclic peptide 166, KKKA(Dap(acetyl))EPRGDNYR(C), reference compound] (H-KKKA[Dap]EPRGDNYRC-OH; linker 5-14 via X1)
Study system: human integrin αvβ5 (Homo sapiens, UniProt P06756+P18084)
Quantity: pKd
Test result: > 7.30
--
Molecule: CC(C)[C@@H]1NC(=O)[C@@H](NC(=O)[C@H](CCCCN)NC(=O)[C@H](CCCCN)NC(=O)[C@@H](N)CCCCN)CCSCC(=O)NCC[C@@H](C(=O)O)NC(=O)[C@H](C)NC(=O)[C@H](Cc2ccccc2)NC(=O)[C@H]([C@@H](C)O)NC(=O)[C@H](CC(=O)O)NC(=O)CNC(=O)[C@H](CCCNC(=N)N)NC(=O)[C@@H]2CCCN2C1=O [Cyclic peptide 104, KKK-(Hcy)-VPRGDTFA(Dab(acetyl))] (H-KKK[hCys]VPRGDTFA[Dab]-OH; linker 4-13 via X2)
Study system: human integrin αvβ5 (Homo sapiens, UniProt P06756+P18084)
Quantity: pKd
Test result: > 7.30
--
Molecule: CC[C@H](C)[C@@H]1NC(=O)[C@@H](NC(=O)[C@H](C)N)CCSCC(=O)NCC[C@@H](C(=O)NCC(=O)O)NC(=O)[C@H](C)NC(=O)[C@H](Cc2ccccc2)NC(=O)[C@H](CO)NC(=O)[C@H](CC(=O)O)NC(=O)CNC(=O)[C@H](CCCNC(=N)N)NC(=O)[C@@H]2CCCN2C1=O [Cyclic peptide 127, A-(Hcy)-IPRGDSFA(Dab(acetyl))G] (H-A[hCys]IPRGDSFA[Dab]G-OH; linker 2-11 via X2)
Study system: human integrin αvβ5 (Homo sapiens, UniProt P06756+P18084)
Quantity: pKd
Test result: > 7.30
